B1: TPR t1 (parent)
chain: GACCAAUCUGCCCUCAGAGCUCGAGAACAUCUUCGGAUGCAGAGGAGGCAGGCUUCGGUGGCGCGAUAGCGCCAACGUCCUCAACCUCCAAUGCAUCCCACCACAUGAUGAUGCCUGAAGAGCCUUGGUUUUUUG

variants of: B1; assay: polymerase ribozyme fitness, log enrichment relative to wild type (log ratio); higher = more active; in vitro selection for triplet polymerase activity
MEASURED_PROPERTY: polymerase ribozyme fitness (log ratio)
Hey, just send me the number, nothing else.

INSERT INTO assay_data (changes, measured_property, result_number) VALUES
  ('G60U C97U', 'polymerase ribozyme fitness (log ratio)', -1.7),
  ('G36A A121U G128A', 'polymerase ribozyme fitness (log ratio)', 0.119),
  ('C40A U133G', 'polymerase ribozyme fitness (log ratio)', -1.45);

Exam item: Requested field: polymerase ribozyme fitness (log ratio). Item: C76U G127A
Marked response: -1.52

Exam item: Which measured polymerase ribozyme fitness (log ratio) value corresponds to C3U A18U C89U G120C G122U ?
Marked response: -3.19

Exam item: // polymerase ribozyme fitness (log ratio) lookup, key: C72A C89A U106A
Marked response: -2.09

Exam item: Need polymerase ribozyme fitness (log ratio) of C11A U14A A18U U55C , thanks.
Marked response: -4.98

Exam item: Requested read-out: polymerase ribozyme fitness (log ratio). Entry: G69C C88A
Marked response: -2.15

Exam item: I would be grateful if you could share the reported polymerase ribozyme fitness (log ratio) for C13A G61U U92C C114A .
Marked response: -3.9

Exam item: May I ask what polymerase ribozyme fitness (log ratio) has been recorded for A84U C115G ?
Marked response: -3.83

Exam item: So what's the measured polymerase ribozyme fitness (log ratio) for this one? G61U A84G U96G
Marked response: -0.74

Exam item: Suppose we examine the variant G17U C49U C124G G127C ; what polymerase ribozyme fitness (log ratio) value has been reported?
Marked response: -0.942

Exam item: Field request: polymerase ribozyme fitness (log ratio) | item: C15G A37U C56U C123A
Marked response: -1.93

Exam item: Reported polymerase ribozyme fitness (log ratio) for C15U C56U G117C : what is it?
Marked response: -1.61

Exam item: Consider the variant shown here: C28A G61A What is its recorded polymerase ribozyme fitness (log ratio)?
Marked response: -4.06

Exam item: So what does the record say about polymerase ribozyme fitness (log ratio) for A46C U87A G93C C115A U116C A119C ?
Marked response: -3.74

Exam item: Consider the variant shown here: G35U G71U What is its recorded polymerase ribozyme fitness (log ratio)?
Marked response: -5.03
